Target: T1, Mouse NRP-1 His (mouse, UniProt P97333 22-856)
T1 construct: Recombinant monomeric protein; also called mNRP-1; not shown: His tag
T1 sequence (P97333 22-856 limits assumed): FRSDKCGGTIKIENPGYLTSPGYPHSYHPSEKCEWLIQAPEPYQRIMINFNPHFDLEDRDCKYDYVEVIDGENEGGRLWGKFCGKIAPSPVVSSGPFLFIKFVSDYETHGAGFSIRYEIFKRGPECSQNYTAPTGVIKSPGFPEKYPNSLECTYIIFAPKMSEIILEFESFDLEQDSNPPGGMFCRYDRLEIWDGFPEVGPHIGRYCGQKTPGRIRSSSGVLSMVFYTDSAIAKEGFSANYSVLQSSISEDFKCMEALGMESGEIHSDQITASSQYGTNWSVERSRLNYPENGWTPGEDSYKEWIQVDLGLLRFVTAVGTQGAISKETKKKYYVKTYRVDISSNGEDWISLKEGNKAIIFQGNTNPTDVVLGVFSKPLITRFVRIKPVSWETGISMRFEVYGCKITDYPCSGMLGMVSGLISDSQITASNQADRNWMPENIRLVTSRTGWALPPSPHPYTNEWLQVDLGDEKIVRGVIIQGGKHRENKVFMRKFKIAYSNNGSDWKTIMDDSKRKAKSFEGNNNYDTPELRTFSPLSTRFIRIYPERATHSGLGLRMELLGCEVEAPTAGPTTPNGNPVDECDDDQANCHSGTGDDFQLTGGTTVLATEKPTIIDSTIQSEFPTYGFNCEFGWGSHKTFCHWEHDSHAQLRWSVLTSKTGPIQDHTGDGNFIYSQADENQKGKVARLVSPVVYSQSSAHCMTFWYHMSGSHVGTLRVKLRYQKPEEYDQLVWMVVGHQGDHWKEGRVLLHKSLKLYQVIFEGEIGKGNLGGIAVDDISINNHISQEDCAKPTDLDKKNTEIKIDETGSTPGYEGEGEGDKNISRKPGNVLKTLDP
Test: BLI ForteBio, IgG1 N297A on AHQ sensor, 100 nM monomeric antigen, 1:1 fit
measurement name: Kd (nM)
# output: bare number, implied unit nM

Query block: Let me know recorded Kd for MAB3 (antibody, V domains shown) VH: QAQLVQSGAEVKKPGASVKVSCKASGYTFSRYYMHWVRQAPGQGLEWMGIINPLGGSTLYAQKFQGRVTMTRDTSTSTVYMELSSLRSEDTAVYYCARDLGYYGSGMHAWGQGTLVTVSS VL: DIQMTQSPSSVSASVGDRVTITCRASQGISRWLAWYQQKPGKAPKLLIYAASSLQSGVPSRFSGSGSGTDFTLTISSLQPEDFATYYCQQANLLPFTFGGGTKVEIK , thanks.
Result block: 0.99

Query block: // Input: MAB14 (antibody, V domains shown) VH: QVQLQQWGAGLLKPSETLSLTCAVYGGSFRGYYWEWSRQPPGKGLEWIGEISHSGSTNYNPSLKSRVTISVDTSKNQFSLKLSPVTAADTAVYYCARARPYREPYGMDVWGQGTTVTVSS VL: DIQLTQSPSSVSASVGDRVTITCRASQDISSWLAWYQQKPGKAPKLLIYAASSLQSGVPSRFSGSGSGTDFTLTISSLQPEDFATYYCQQELAFPRTFGGGTKVEIK . Output its Kd only.
Result block: 5

Query block: Fill in Kd for record MAB13 (antibody, V domains shown) VH: QVQLQQWGAGLLKPSETLSLTCAVYGGSFRGYYWEWIRQPPGKGLEWIGEISHSGSTNYNPSLKSRVTISVDTSKNQFSLKLSSVTAADTAVYYCARARPYREPYGMDVWGQGTTVTVSS VL: DIQLTQSPSSVSASVGDRVTITCRASQDISSWLAWYQQKPGKAPKLLIYAASSLQSGVPSRFSGSGSGTDFTLTISSLQPEDFATYYCQQELAFPRTFGGGTKVEIK
Result block: 7.42

Query block: Consider the binder MAB12 (antibody, V domains shown) VH: EVQLLESGGGLVQPGGSLRLSCAASGFTFSSVAMVWVRQAPGKGLEWVSAISGSGGATYYADSVEGRFTISRDNSKNTLYLQMNSLRAEDTAVYYCAKDPGYDSSRYYYSNYGMDVWGQGTTVTVSS VL: DIQMTQSPSSLSASVGDRVTITCRASQSISSYLNWYQQKPGKAPKLLIYGASSLQSGVPSRFSGSGSGTDFTLTISSLQPEDFATYYCQQTYSLYTFGGGTKVEIK and give its recorded Kd.
Result block: 0.44

Query block: Dear colleague, please send me the reported Kd for MAB6 (antibody, V domains shown) VH: QVQLVQSGAKVKKPGASVKVSCKASGYTFTSYYMHWVRQVPGQGLEWMGIINPQGGDTSYAQKFQGRVTMTRDTSTSTVYMELSSLRSEDTAVYYCARDRGMYYASGFNPWGQGTLVTVSS VL: EIVMTQSPGTLSLSPGERATLSCRASQSVSSSYLAWYQQKPGQAPRLLIYGASNRATGIPDRFSGSGSGTDFTLTISRLEPEDFAVYYCQQLSSFPITFGGGTKVEIK when you can.
Result block: 6.98

Query block: Entry MAB8 (antibody, V domains shown) VH: EVQLLESGGGLVQPGGSLRLSCAASGFTFASYAMVWVRQAPGKGLEWVSIISGSGGSTYYADSVKGRFTISRDNSKNTLYLQMNSLRAEDTAVYYCAKDPGYDSSRYYYSNYGMDVWGQGTTVTVSS VL: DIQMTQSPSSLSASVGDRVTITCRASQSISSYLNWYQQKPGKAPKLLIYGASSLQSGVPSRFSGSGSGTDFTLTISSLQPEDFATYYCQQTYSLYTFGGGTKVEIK needs its Kd filled in; supply it.
Result block: 0.552

Query block: Could you please provide reported Kd for MAB10 (antibody, V domains shown) VH: EVQLLESGGGLVQPGGSLRLSCAASGFTFSSVAMVWVRQAPGKGLEWVSAISGSGGATYYADSVKGRFTISRDNSKNTLYLQMNSLRAEDTAVYYCAKDPGYDSSRYYYSNYGMDVWGQGTTVTVSS VL: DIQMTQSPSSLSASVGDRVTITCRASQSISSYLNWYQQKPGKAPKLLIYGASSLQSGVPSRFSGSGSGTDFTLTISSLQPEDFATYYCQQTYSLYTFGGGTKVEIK ? Thanks!
Result block: 0.746

FYI, the data here is from patent US20190119389A1.
